Biological target: T1, Histidine-tagged human CD40 protein (hCD40-His) (human, UniProt P25942 21-193)
T1 construct: not shown: histidine tag
T1 sequence (P25942 21-193 limits assumed): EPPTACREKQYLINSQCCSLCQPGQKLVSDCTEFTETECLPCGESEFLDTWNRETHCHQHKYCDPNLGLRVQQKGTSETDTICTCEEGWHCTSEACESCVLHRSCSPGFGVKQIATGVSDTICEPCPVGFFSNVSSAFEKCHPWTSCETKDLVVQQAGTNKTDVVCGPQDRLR
Assay: SPR, Biacore T200; antibody on Protein A chip, hCD40-His injected; 1:1 fit
Consider the following binders; for each one, report its pKd.
Recall that pKd is obtained by taking minus log10 of the concentration measured in molar.

Query: pKd; subject: 6A7-H3K1-IgG4 (antibody, V domains shown, Humanized) VH: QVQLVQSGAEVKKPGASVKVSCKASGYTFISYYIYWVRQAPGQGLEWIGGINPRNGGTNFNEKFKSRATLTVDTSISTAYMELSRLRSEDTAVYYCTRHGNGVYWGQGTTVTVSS VL: DVVMTQSPLSLPVTLGQPASISCRSSQSLLHSNGNTYLHWFQQRPGQSPRHLIYQVSNRFSGVPDRFSGSGSGTDFTLKISRVEAEDVGVYYCSQTTHVPWTFGGGTKVEIK
7.68

Please give the result for 4H6-H1K1-IgG4 (antibody, V domains shown, Humanized) VH: QVQLQESGPGLVKPSQTLSLTCTVSGDSVSSGYWNWIRKHPGKKLEWIGFISYSGSTYYTPSLKSRVTISRDTSKNQFSLKLSSVTAADTAVYYCARFRRYDDGVDYWGQGTLVTVSS VL: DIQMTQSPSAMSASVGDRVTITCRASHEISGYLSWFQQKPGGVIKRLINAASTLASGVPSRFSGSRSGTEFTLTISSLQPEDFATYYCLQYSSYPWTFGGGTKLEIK too.
5.11
